- Assay type: in vivo, human
- conditionSet: human, plasma, oral, 0.5 mg, C max, 0.5 mg luseogliflozin OD, Day 1, plasma
quantityName: Cmax (µg/mL)
Respond with the bare value in µg/mL.

Please look up its Cmax: CCOc1ccc(Cc2cc([C@@H]3S[C@H](CO)[C@@H](O)[C@H](O)[C@H]3O)c(OC)cc2C)cc1
0.0219

* * *

- Format: in vivo, human
- conditionSet: human, plasma, oral, 2.5 mg, C max, 2.5 mg luseogliflozin OD, Day 1, plasma
quantityName: Cmax (ng/mL)
Respond with the bare value in ng/mL.

Please look up its Cmax: CCOc1ccc(Cc2cc([C@@H]3S[C@H](CO)[C@@H](O)[C@H](O)[C@H]3O)c(OC)cc2C)cc1 [Luseogliflozin]
119

* * *

- Format: in vivo, human
- conditionSet: human, plasma, oral, 0.5 mg
quantityName: AUC(0-inf) (ng·h/mL)
Respond with the bare value in ng·h/mL.

Please look up its AUC(0-inf): CCOc1ccc(Cc2cc([C@@H]3S[C@H](CO)[C@@H](O)[C@H](O)[C@H]3O)c(OC)cc2C)cc1
171

* * *

- Type: in vivo, human
- conditionSet: human, plasma, oral, 2.5 mg, t max, 2.5 mg luseogliflozin OD, Day 1, plasma
quantityName: Tmax (min)
Respond with the bare value in min.

Please look up its Tmax: CCOc1ccc(Cc2cc([C@@H]3S[C@H](CO)[C@@H](O)[C@H](O)[C@H]3O)c(OC)cc2C)cc1
37.5

* * *

- Type: in vivo, human
- conditionSet: human, plasma, oral, 1 mg, C max, 1 mg luseogliflozin OD, Day 1, plasma
quantityName: Cmax (ng/mL)
Respond with the bare value in ng/mL.

Please look up its Cmax: CCOc1ccc(Cc2cc([C@@H]3S[C@H](CO)[C@@H](O)[C@H](O)[C@H]3O)c(OC)cc2C)cc1 [Luseogliflozin]
43.7

* * *

- Assay type: in vivo, human
- conditionSet: human, plasma, oral, 2.5 mg, t 1/2, 2.5 mg luseogliflozin OD, Day 1, plasma
quantityName: half-life

Please look up its half-life: CCOc1ccc(Cc2cc([C@@H]3S[C@H](CO)[C@@H](O)[C@H](O)[C@H]3O)c(OC)cc2C)cc1
9.24 h

* * *

- Format: in vivo, human
- conditionSet: human, plasma, oral, 1 mg, C max, 1 mg luseogliflozin OD, Day 7, plasma
quantityName: Cmax (ng/mL)
Respond with the bare value in ng/mL.

Please look up its Cmax: CCOc1ccc(Cc2cc([C@@H]3S[C@H](CO)[C@@H](O)[C@H](O)[C@H]3O)c(OC)cc2C)cc1 [Luseogliflozin]
52.3

* * *

- Format: in vivo, human
- conditionSet: human, plasma, oral, 0.5 mg, C max, 0.5 mg luseogliflozin OD, Day 7, plasma
quantityName: Cmax (ng/mL)
Respond with the bare value in ng/mL.

Please look up its Cmax: CCOc1ccc(Cc2cc([C@@H]3S[C@H](CO)[C@@H](O)[C@H](O)[C@H]3O)c(OC)cc2C)cc1
25.6

* * *

- Assay type: in vivo, human
- conditionSet: human, plasma, oral, 2.5 mg, C max, 2.5 mg luseogliflozin OD, Day 7, plasma
quantityName: Cmax (ng/mL)
Respond with the bare value in ng/mL.

Please look up its Cmax: CCOc1ccc(Cc2cc([C@@H]3S[C@H](CO)[C@@H](O)[C@H](O)[C@H]3O)c(OC)cc2C)cc1
136
